target: T1, rat IL-17A (rat, UniProt Q61453 18-150, limits assumed)
T1 construct: Purified recombinant protein in SPR
T1 sequence (looked up): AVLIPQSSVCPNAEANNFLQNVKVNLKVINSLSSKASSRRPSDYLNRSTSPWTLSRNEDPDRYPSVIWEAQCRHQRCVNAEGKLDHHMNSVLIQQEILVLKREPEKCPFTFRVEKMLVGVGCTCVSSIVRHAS
procedure text: SPR (Biacore 3000), antibody captured by anti-Fc, antigen in solution;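 further: purified recombinant IL-17 antigens flowed over captured antibodies in HBS-EP buffer, global Langmuir one-to-one fit of association and dissociation phases, KD derived from koff over kon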
measured property: kon (M⁻¹ s⁻¹)
Only the number, expressed in M⁻¹ s⁻¹, is required.

binder: IL17-h5C5.8 (antibody, V domains shown, IgG; constant regions not specified; also called h5C5.8 (VH.1-Vk.1a)) VH: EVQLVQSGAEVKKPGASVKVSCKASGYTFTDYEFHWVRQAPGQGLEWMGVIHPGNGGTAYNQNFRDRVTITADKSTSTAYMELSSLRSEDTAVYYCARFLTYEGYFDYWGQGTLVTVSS VL: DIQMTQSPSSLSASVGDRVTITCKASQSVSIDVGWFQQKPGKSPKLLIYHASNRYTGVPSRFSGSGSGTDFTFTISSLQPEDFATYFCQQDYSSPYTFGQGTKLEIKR
units text: M⁻¹ s⁻¹
kon: 774000

binder: IL17-h5C5.15 (antibody, V domains shown, IgG; constant regions not specified; also called h5C5.15 (VH.1b-Vk.3a)) VH: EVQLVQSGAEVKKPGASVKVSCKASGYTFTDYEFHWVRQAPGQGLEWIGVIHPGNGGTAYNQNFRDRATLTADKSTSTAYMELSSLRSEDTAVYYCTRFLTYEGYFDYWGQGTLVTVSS VL: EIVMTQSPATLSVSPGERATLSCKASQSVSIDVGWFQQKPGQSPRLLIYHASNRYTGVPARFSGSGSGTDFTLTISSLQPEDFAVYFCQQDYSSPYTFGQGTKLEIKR
units text: M⁻¹ s⁻¹
kon: 621000

binder: IL17-h5C5.9 (antibody, V domains shown, IgG; constant regions not specified; also called h5C5.9 (VH.1b-Vk.1a)) VH: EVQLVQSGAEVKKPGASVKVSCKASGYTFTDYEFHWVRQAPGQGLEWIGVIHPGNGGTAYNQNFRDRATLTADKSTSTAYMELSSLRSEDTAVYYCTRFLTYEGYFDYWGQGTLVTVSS VL: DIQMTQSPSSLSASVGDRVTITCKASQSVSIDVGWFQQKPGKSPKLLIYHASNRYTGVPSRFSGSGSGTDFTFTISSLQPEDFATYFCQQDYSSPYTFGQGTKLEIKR
units text: M⁻¹ s⁻¹
kon: 1.13e+06

Consider the record given below.
Sample IL17-h10F7.6 (antibody, V domains shown, IgG; constant regions not specified; also called h10F7.6 (VH.1a-Vk.1a)) VH: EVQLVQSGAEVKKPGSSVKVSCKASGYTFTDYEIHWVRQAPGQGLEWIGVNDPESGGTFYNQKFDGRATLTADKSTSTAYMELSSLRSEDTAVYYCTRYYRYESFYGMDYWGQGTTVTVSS VL: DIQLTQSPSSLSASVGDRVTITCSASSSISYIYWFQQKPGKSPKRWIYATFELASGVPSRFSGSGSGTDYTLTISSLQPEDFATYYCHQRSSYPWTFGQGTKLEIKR ; kon observed: 494000
